Each entry below carries its reported % Maximum blocking.
Molecular target: T1, cynomolgus monkey IL-33 expressed with a C-terminal hexahistidine tag (cynomolgus monkey)
T1 construct: also called MfIL-33-6His; Mf-IL-33-6His
T1 chain: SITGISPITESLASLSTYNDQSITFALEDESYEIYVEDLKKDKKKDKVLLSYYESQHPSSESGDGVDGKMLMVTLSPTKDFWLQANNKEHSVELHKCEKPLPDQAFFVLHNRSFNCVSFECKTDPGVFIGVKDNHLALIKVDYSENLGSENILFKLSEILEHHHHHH
Experiment: competition ELISA, 150 pM MfIL-33-6His on coated hST2-hFc
Quick reminder: number only, in %, skip the unit.

Briefly, % Maximum blocking measured for H4H9675P (antibody, human IgG4, V domains shown, Human IgG4 Fc (H4H)) VH: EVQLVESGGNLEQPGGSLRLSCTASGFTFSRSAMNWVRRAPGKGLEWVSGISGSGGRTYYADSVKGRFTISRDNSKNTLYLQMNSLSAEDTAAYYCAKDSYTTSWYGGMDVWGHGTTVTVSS VL: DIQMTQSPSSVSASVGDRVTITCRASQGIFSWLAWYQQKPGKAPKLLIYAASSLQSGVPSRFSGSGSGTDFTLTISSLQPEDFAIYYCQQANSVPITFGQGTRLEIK : 72

Briefly, % Maximum blocking measured for H1M9568N (antibody, mouse IgG1, V domains shown, Human variable domains, mouse IgG1 Fc (H1M)) VH: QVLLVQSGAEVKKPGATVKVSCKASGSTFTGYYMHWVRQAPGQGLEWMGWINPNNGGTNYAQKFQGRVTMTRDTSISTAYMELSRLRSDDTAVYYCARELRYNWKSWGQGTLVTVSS VL: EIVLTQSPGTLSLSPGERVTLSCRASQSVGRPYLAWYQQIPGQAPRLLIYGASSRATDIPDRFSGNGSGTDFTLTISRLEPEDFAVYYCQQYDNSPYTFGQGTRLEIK : 38

Briefly, % Maximum blocking measured for H4H9676P (antibody, human IgG4, V domains shown, Human IgG4 Fc (H4H)) VH: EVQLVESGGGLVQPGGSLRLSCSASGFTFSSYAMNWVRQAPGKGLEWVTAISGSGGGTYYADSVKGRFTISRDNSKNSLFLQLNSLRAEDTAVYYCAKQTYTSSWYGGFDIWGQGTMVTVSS VL: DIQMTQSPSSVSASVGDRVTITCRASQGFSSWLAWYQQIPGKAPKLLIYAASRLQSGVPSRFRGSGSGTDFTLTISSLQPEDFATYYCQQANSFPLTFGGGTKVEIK : 57

Briefly, % Maximum blocking measured for H4H9667P (antibody, human IgG4, V domains shown, Human IgG4 Fc (H4H)) VH: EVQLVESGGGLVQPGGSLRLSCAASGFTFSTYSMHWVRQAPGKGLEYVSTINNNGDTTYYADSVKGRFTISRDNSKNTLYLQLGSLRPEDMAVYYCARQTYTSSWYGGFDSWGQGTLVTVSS VL: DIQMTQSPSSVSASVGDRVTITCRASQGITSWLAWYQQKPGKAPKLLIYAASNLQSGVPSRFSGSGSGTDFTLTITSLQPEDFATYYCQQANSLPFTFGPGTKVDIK : 72

Next:
Briefly, % Maximum blocking measured for H1M9566N (antibody, mouse IgG1, V domains shown, Human variable domains, mouse IgG1 Fc (H1M)) VH: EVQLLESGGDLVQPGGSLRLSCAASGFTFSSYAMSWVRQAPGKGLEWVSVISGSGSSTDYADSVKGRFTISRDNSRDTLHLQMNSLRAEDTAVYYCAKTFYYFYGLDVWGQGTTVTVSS VL: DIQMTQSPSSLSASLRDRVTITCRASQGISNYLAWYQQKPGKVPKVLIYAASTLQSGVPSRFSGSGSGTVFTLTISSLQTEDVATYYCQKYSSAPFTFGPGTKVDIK : 41
